Target: PD-1/PD-L1 interaction (PD-1-Ig / PD-L1-His) (Homo sapiens (Human))
Sequence (Q9NZQ7 other isoform, or with tags, fused parts or gaps): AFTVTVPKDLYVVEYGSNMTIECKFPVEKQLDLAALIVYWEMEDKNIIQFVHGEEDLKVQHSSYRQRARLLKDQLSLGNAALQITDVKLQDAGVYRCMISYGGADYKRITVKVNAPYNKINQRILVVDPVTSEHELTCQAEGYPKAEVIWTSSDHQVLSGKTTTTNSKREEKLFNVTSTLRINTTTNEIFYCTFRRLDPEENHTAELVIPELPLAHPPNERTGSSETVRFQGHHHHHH
Test: PD-1/PD-L1 Homogenous Time-Resolved Fluorescence (HTRF) binding assay
Settings: PD-1/PD-L1 HTRF binding assay; value given as range class; read-out: Range or IC50
Assign IC50 to each entry below.

Would you mind telling me what IC50 value was observed for Cc1c(COc2cc(OCc3cncc(C#N)c3)c(CN[C@](C)(CO)C(=O)O)cc2Br)cccc1-c1ccc2c(c1)OCCO2 ?
0.6 to 10 nM

Field request: IC50 | item: CC(=O)NCCNCc1ccc(OCc2cccc(-c3ccccc3)c2C)cc1OCc1cccc(C(=O)c2ccccc2)c1
100 to 20000 nM

For the compound shown here, Cc1cc(CN2CCCC[C@H]2C(=O)O)c(OCc2cccc(C#N)c2)cc1OCc1cccc(-c2ccc3c(c2)OCCO3)c1C , give the reported IC50.
0.6 to 10 nM

Can you share its IC50? I mean this compound: Cc1c(COc2cc(OCc3cccc(C#N)c3)c(CNC(Cc3cccc(O)c3)C(=O)O)cc2Cl)cccc1-c1ccc2c(c1)OCCO2 (centres unmarked)
10 to 100 nM

IC50 lookup needed for CC(=O)NCCNCc1ccc(OCc2cccc(-c3ccccc3)c2C)cc1OCc1ccc(F)c(F)c1 , thanks.
100 to 20000 nM

Report IC50 for COc1cc(COc2cc(OCc3cccc(-c4ccc5c(c4)OCCO5)c3C)c(Cl)cc2CO)ccn1 please.
100 to 20000 nM

Which IC50 value is on record for CC(=O)NCCNCc1ccc(OCc2cccc(-c3ccccc3)c2C)cc1OCc1ccccc1S(C)(=O)=O ?
100 to 20000 nM

Query (compound): Cc1c(COc2ccc(CN[C@](C)(CO)C(=O)O)c(OCc3cccc(C#N)c3)c2)cccc1-c1ccccc1 ; field requested: IC50
0.6 to 10 nM

So what's the measured IC50 for this one? Cc1c(COc2cc(OCc3cncc(C#N)c3)c(CN[C@@H](CC(N)=O)C(=O)O)cc2Cl)cccc1-c1ccc2c(c1)OCCO2
0.6 to 10 nM

// IC50 lookup, key: CC(=O)NCCNCc1ccc(OCc2cccc(-c3ccccc3)c2C)cc1OCc1ccc(Cl)c(Cl)c1
100 to 20000 nM

Suppose we examine the compound Cc1c(COc2cc(OCc3cccc(C#N)c3)c(CN(Cc3ccccc3)[C@@H](CO)C(=O)O)cc2Cl)cccc1-c1ccc2c(c1)OCCO2 ; what IC50 value has been reported?
10 to 100 nM

Fill in the blank: the reported IC50 of Cc1c(COc2cc(OCc3cncc(C#N)c3)c(CN[C@@](C)(CO)C(=O)O)cc2Cl)cccc1-c1ccc2c(c1)OCCO2 is ____.
0.6 to 10 nM

Recorded IC50 for Cc1c(COc2cc(OCc3cccc(C#N)c3)c(CNC(Cc3c[nH]c4ccccc34)C(=O)O)cc2Cl)cccc1-c1ccc2c(c1)OCCO2 (centres unmarked) , please?
100 to 20000 nM

Recorded IC50 of Cc1c(COc2cc(OCc3cccc(C#N)c3)c(CN3CCC[C@@H](C(=O)O)[C@H]3C(=O)O)cc2Cl)cccc1-c1ccc2c(c1)OCCO2 , please.
0.6 to 10 nM
